The measurements presented in this section are drawn from patent US20160200799A1.

# Target: Influenza virus A/Indonesia/5/2005/PR8-IBCDC-RG2 (H5N1) (Influenza A virus A/Indonesia/5/2005/PR8-IBCDC-RG2 (H5N1))
# Assay Method Text: cell-based or functional assay
Assay Metric: Neutralizing activity (%) at 100 µg/ml
Return type: number; implicit unit %.

The examples below pair each entry with its known result.
Group 80 representative clone F083-373, Fab-PP-type antibody (Fab, V domains shown) VH: QVQLVQSGADVKKPGSSVRVSCKASGRTFGNYAISWVRQAPGQGLEWMGGITPIFGAANYAQKFQGRVTISADLSTTMVYMDLSSLRSDDTAFYYCAGHPTYYYGSPMDYWGQGTLVTVSS VL: EIVLTQSPSSLSASVGDRVTITCRASQSIATYLNWYQQKPGKAPNLLIYAASNLQSGVPSRFSGSGSGTDFTLTISSLQPEDFATYVCLQSYSATLTFGGGTKVEIK: -3.3
Group 54 representative clone F083-354, Fab-PP-type antibody (Fab, V domains shown) VH: QVQLVQSGSEVKKPGSSVKVSCKASGGIFNSYGISWVRQAPGQGLEWMGGILAIFGTTNYAQKFQGRVTITADDSSKTVYMELSSLTSEDTAVYYCARGSTYYSSYFDQWGQGTLVTVSS VL: DIQMTQSPSSLSASVGDRVTITCRASQGIRNSLAWYQQKPGQVPKLLIYSATTLRSGVPYRFSGSGSGTDFTLTISGLQPEDVGTYFCHRYDSAPLTFGGGTRVALK: 66.4

*Q* // lookup Neutralizing activity (%) at 100 µg/ml for Group 3 representative clone F081-281, Fab-PP-type antibody (Fab, V domains shown) VH: QVQLVQSGSEVKKPGSSVKVSCSFKASGGIISKYAITWVRQAPGQGLEWMGGIIAIFGSTNYAQKFQGRLTITSDESTSTAYMELSSLTSEDTAVYYCGRGPHYYESHLDYWGQGTLVTVSS VL: EIVLTQSPGTLSLSPGERATLSCRASQGMSSSFLAWYQQKPGQPPRLLISGASTRATGIPDRFSGSGSGTDFTLTINRLEPEDFAVYYCQQYGSSPRTFGQGTKVEIK
*A* 81.8

*Q* // lookup Neutralizing activity (%) at 100 µg/ml for Group 52 representative clone F083-328, Fab-PP-type antibody (Fab, V domains shown) VH: QVQLVQSGAEVKKPGSSVKLSCKASGGTLRSYALSWVRQAPGEGLEWMGGISAIFNTATYAQNVQGRVTITADESTNTFYLEVSSLRSDDTAVYYCATSGTYYVSFFDYWGQGTLVTVSS VL: DIVLTQSPSTLSASVGDRVTLTCRASQSIGSLMAWYQQQPGKPPKLLIYRASNLETGVPSRFTGSGSGTEFALTISSLQPDDVGTYYCQHFKTFSRTFGQGTKVEIK
*A* 86.9

*Q* // lookup Neutralizing activity (%) at 100 µg/ml for Group 43 representative clone F081-007, Fab-PP-type antibody (Fab, V domains shown) VH: QVQLQQSGAEVKKPGSSVKVSCKASGGIFRKNAISWVRQAPGQGLEWMGGISAIFGTANYAQKFQGRVTITADESSNTVYMDLSRLRSEDTAIYYCASHPTYHFDKSGYRFDSWGQGTLVTVSS VL: QSVLTQPPSVSAAPGQKVTISCSGSSSNIGNNYVSWYQQLPGTAPKLLIYDNNKRPSGIPDRFSGSKSGTSATLGITGLQTGDEADYYCGTWDSSLSAGVFGGGTKLTVLG
*A* 97.6
